B1: SH3 and PX domain-containing protein 2B, residues 155 to 209; numbered along this chain, A1X283 (parent)
chain: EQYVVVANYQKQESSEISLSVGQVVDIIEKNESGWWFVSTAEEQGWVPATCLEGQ

# Variants of: B1
# assay.name: abundance fitness (aPCA) (normalised: wild type 0, dead -1); higher = more abundant; growth selection in yeast, the domain comes from the species named
# condition.label: Homo sapiens
Label Satisfied when abundance fitness is at or above -0.2; otherwise label Not satisfied.

# count of solved cases: 4
- mut: "Y9E"
  group.label: "Not satisfied"
- mut: "K30Y"
  group.label: "Satisfied"
- mut: "N31H"
  group.label: "Satisfied"
- mut: "I27Y"
  group.label: "Satisfied"

q: Confirm if abundance fitness reported for the variant `G34V` is -0.2 or above.
a: Not satisfied

q: # bool: abundance fitness of `V24T` >= -0.2
a: Satisfied

q: Hi, just wondering whether `Y3E` shows abundance fitness of -0.2 or higher.
a: Satisfied

q: Is abundance fitness for `V4S` at or above -0.2?
a: Satisfied

q: Given the entry `L52F` , answer whether its abundance fitness meets or surpasses -0.2.
a: Satisfied

q: Item `G45R` with abundance fitness of -0.2 or above?
a: Not satisfied

q: Has `Q12C` a recorded abundance fitness greater than or equal to -0.2?
a: Not satisfied

q: Check if abundance fitness >= -0.2 (inclusive). Item: `Q44I`
a: Not satisfied
